Test system: P388/ADR
Assay: Antitumor activity against ip implanted P388/ADR in CDF1 mice
Type: in vivo
Conditions: ip qd 1-9, at optimal dose
Numbered stars: 1 amine (or outer) side, 2 acyl side, 3 side chain; on linkers, the order of the positions; unused ones are H or OH. Bridge positions count the residues as written; N and C are the ends. Square brackets hold non-standard residues; d marks the D form. Peptide text beside a SMILES is read from it. I, II: the chains in the order shown. Actinocin(9to1) = Cc1c2oc3c(C)ccc(C(=O)[*:1])c3nc-2c(C(=O)[*:2])c(N)c1=O; NMeV = CN[C@H](C(=O)O)C(C)C; Sar = CNCC(=O)O
reported_property: MST (median survival time) (days)
Output spec: scalar in days, unitless text.

Examples from the recorded data:
{"compound": "CO[C@@]12[C@H](COC(N)=O)C3=C(C(=O)C(C)=C(N)C3=O)N1C[C@@H]1N[C@@H]12 [mitomycin, mitomycin C, reference compound]", "reported_property": "MST (median survival time)", "number": 45}
{"compound": "Cc1c2oc3c(C)c(OCC4CO4)cc(C(=O)NC4C(=O)NC(C(C)C)C(=O)N5CCCC5C(=O)N(C)CC(=O)N(C)C(C(C)C)C(=O)OC4C)c3nc-2c(C(=O)NC2C(=O)NC(C(C)C)C(=O)N3CCCC3C(=O)N(C)CC(=O)N(C)C(C(C)C)C(=O)OC2C)c(N)c1=O [(R)-(+)-EPA, 7-(2,3-epoxypropoxy) actinomycin D]", "reported_property": "MST (median survival time)", "number": 45}
{"compound": "Cc1c2oc3c(C)c(OCC4CO4)cc(C(=O)NC4C(=O)NC(C(C)C)C(=O)N5CCCC5C(=O)N(C)CC(=O)N(C)C(C(C)C)C(=O)OC4C)c3nc-2c(C(=O)NC2C(=O)NC(C(C)C)C(=O)N3CCCC3C(=O)N(C)CC(=O)N(C)C(C(C)C)C(=O)OC2C)c(N)c1=O (racemic) [3b[(±)-EPA]] [7-(2,3-epoxypropoxy) actinomycin D]", "reported_property": "MST (median survival time)", "number": 40}
{"compound": "Cc1c2oc3c(C)c(OCC4CO4)cc(C(=O)NC4C(=O)NC(C(C)C)C(=O)N5CCCC5C(=O)N(C)CC(=O)N(C)C(C(C)C)C(=O)OC4C)c3nc-2c(C(=O)NC2C(=O)NC(C(C)C)C(=O)N3CCCC3C(=O)N(C)CC(=O)N(C)C(C(C)C)C(=O)OC2C)c(N)c1=O [(S)-(-)-EPA, 7-(2,3-epoxypropoxy) actinomycin D]", "reported_property": "MST (median survival time)", "number": 43}

// query Returns the measured MST (median survival time) for the input compound. Input: Cc1c2oc3c(C)ccc(C(=O)N[C@@H]4C(=O)N[C@H](C(C)C)C(=O)N5CCC[C@H]5C(=O)N(C)CC(=O)N(C)[C@@H](C(C)C)C(=O)O[C@@H]4C)c3nc-2c(C(=O)N[C@@H]2C(=O)N[C@H](C(C)C)C(=O)N3CCC[C@H]3C(=O)N(C)CC(=O)N(C)[C@@H](C(C)C)C(=O)O[C@@H]2C)c(N)c1=O [1b(AMD), Actinomycin D] (I: T[dV]P[Sar][NMeV] / II: T[dV]P[Sar][NMeV]; ester I:1-I:C, II:1-II:C; linker I:N-II:N via Actinocin(9to1))
// result 12

meta.source: patent US5155209A
